# subject.of.test: dopamine D2 receptor (Rattus norvegicus)
# Construct: Striata from rats (Sprague Dawley, Charles River) were homogenized immediately after removal; from tissue; host or cells: rat striatum (Sprague Dawley, Charles River), membranes
# Sequence (P61169 whole entry): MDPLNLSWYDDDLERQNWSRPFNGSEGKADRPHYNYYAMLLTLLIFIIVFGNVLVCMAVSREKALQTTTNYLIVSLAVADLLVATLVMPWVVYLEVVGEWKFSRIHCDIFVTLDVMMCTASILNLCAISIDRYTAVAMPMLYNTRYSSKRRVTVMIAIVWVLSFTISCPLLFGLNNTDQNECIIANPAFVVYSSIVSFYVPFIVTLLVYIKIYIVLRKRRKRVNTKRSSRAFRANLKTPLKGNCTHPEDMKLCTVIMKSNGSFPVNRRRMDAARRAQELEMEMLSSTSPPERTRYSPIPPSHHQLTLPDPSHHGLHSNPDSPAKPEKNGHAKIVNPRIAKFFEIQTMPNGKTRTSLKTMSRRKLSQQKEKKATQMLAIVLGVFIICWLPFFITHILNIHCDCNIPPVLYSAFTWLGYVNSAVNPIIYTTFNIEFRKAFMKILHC
# assay.protocol: Receptor binding assay: affinity for the dopamine D2 receptor (3H-ADTN displacement, rat striatal membranes)
# Parameters: species or system rat (Sprague Dawley)
# measurement.context: rat striatal membranes (380 μg protein), 1 nM 3H-ADTN, 0.1 μM SCH 23390, 40 min at 25° C., non-specific: 50 nM spiperone; read-out: Affinity of the test substances for the dopamine D2 receptor, Ki
Counter-ions that a name gives are not always drawn.
outcome.measure: Ki (nM)

Consider the worked cases shown below.
CCOc1ccccc1N1CCN(CCCc2sc(=O)[nH]c2C)CC1 [Example 14, dihydrochloride]
6
CCc1ccccc1N1CCN(CCCc2sc(=O)[nH]c2C)CC1 [Example 10, dihydrochloride]
25
Cc1[nH]c(=O)sc1CCCN1CCN(c2ncccn2)CC1 [Example 7, dihydrochloride]
12
CSc1ccccc1N1CCN(CCCc2sc(=O)[nH]c2C)CC1
6

(P) Cc1[nH]c(=O)sc1CCCN1CCN(c2ccccn2)CC1 [Example 2, dihydrochloride]
(Q) Cc1c(CCCN2CCN(c3ccccc3)CC2)sc(=O)n1C [Example 17, dihydrochloride]
Quick one: lower Ki, P or Q ? Respond with the label that goes with your answer. P
(P: 15 nM, Q: 40 nM)
